assay summary: Thermogravimetric Analysis (TGA), decomposition
Format: physicochemical
recorded conditions: ramp from 25° C. to 300° C. at 10° C./min
property measured: decomposition temperature (TGA)

>>> print(df.to_string())
                                   compound                property_measured  recorded_result
0  Cc1c(Nc2nccc3cc(CN4CC[C@@H](O)C4)cnc23)cccc1-c1cccc(-c2nc3cc(CN4CC[C@@H](C(=O)O)C4)cc(C#N)c3o2)c1C [amorphous powder]  decomposition temperature (TGA)     above 170 °C
1  Cc1c(Nc2nccc3cc(CN4CC[C@@H](O)C4)cnc23)cccc1-c1cccc(-c2nc3cc(CN4CC[C@@H](C(=O)O)C4)cc(C#N)c3o2)c1C [Form V]  decomposition temperature (TGA)     above 160 °C
2  Cc1c(Nc2nccc3cc(CN4CC[C@@H](O)C4)cnc23)cccc1-c1cccc(-c2nc3cc(CN4CC[C@@H](C(=O)O)C4)cc(C#N)c3o2)c1C [Form II]  decomposition temperature (TGA)     above 170 °C
3  Cc1c(Nc2nccc3cc(CN4CC[C@@H](O)C4)cnc23)cccc1-c1cccc(-c2nc3cc(CN4CC[C@@H](C(=O)O)C4)cc(C#N)c3o2)c1C [Form I]  decomposition temperature (TGA)     above 160 °C
4  Cc1c(Nc2nccc3cc(CN4CC[C@@H](O)C4)cnc23)cccc1-c1cccc(-c2nc3cc(CN4CC[C@@H](C(=O)O)C4)cc(C#N)c3o2)c1C [Form III]  decomposition temperature (TGA)     above 160 °C
